Target: T1, human ICOS, full-length, expressed on transfected Expi293 cells (human, UniProt Q9Y6W8 21-199)
T1 construct: whole, on cells
T1 sequence (looked up): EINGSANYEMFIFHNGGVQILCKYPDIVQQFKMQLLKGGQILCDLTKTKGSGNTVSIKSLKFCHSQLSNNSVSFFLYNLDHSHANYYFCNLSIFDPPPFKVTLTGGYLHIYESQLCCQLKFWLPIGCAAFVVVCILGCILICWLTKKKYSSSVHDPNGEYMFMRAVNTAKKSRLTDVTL
Assay: flow cytometry, 100 nM, Expi293 cells with human ICOS
Measured MFI ratio to WT (ΔWT), listed per entry for reference.
Report only the number, with the unit fold understood.

# count of solved cases: 3
* wild-type ICOSL IgV-Fc fusion (Fc fusion, also called WT ICOSL) DTQEKEVRAMVGSDVELSCACPEGSRFDLNDVYVYWQTSESKTVVTYHIPQNSSLENVDSRYRNRALMSPAGMLRGDFSLRLFNVTPQDEQKFHCLVLSQSLGFQEVLSVEVTLHVAANFSVGSGGGGSEPKSSDKTHTCPPCPAPEAEGAPSVFLFPPKPKDTLMISRTPEVTCVVVDVSHEDPEVKFNWYVDGVEVHNAKTKPREEQYNSTYRVVSVLTVLHQDWLNGKEYKCKVSNKALPAPIEKTISKAKGQPREPQVYTLPPSREEMTKNQVSLTCLVKGFYPSDIAVEWESNGQPENNYKTTPPVLDSDGSFFLYSKLTVDKSRWQQGNVFSCSVMHEALHNHYTQKSLSLSPG | 1
* variant ICOSL IgV-Fc fusion N52S/N57Y/Q100V (Fc fusion) DTQEKEVRAMVGSDVELSCACPEGSRFDLNDVYVYWQTSESKTVVTYHIPQSSSLEYVDSRYRNRALMSPAGMLRGDFSLRLFNVTPQDEQKFHCLVLSVSLGFQEVLSVEVTLHVAANFSVGSGGGGSEPKSSDKTHTCPPCPAPEAEGAPSVFLFPPKPKDTLMISRTPEVTCVVVDVSHEDPEVKFNWYVDGVEVHNAKTKPREEQYNSTYRVVSVLTVLHQDWLNGKEYKCKVSNKALPAPIEKTISKAKGQPREPQVYTLPPSREEMTKNQVSLTCLVKGFYPSDIAVEWESNGQPENNYKTTPPVLDSDGSFFLYSKLTVDKSRWQQGNVFSCSVMHEALHNHYTQKSLSLSPG | 1.03
* variant ICOSL IgV-Fc fusion N57Q/Q100P (Fc fusion) DTQEKEVRAMVGSDVELSCACPEGSRFDLNDVYVYWQTSESKTVVTYHIPQNSSLEQVDSRYRNRALMSPAGMLRGDFSLRLFNVTPQDEQKFHCLVLSPSLGFQEVLSVEVTLHVAANFSVGSGGGGSEPKSSDKTHTCPPCPAPEAEGAPSVFLFPPKPKDTLMISRTPEVTCVVVDVSHEDPEVKFNWYVDGVEVHNAKTKPREEQYNSTYRVVSVLTVLHQDWLNGKEYKCKVSNKALPAPIEKTISKAKGQPREPQVYTLPPSREEMTKNQVSLTCLVKGFYPSDIAVEWESNGQPENNYKTTPPVLDSDGSFFLYSKLTVDKSRWQQGNVFSCSVMHEALHNHYTQKSLSLSPG | 0.97

// moving on: another record for MFI ratio to WT (ΔWT)
Task: Consider the binder shown here: variant ICOSL IgV-Fc fusion N52A/N57F/Q100S (Fc fusion) DTQEKEVRAMVGSDVELSCACPEGSRFDLNDVYVYWQTSESKTVVTYHIPQASSLEFVDSRYRNRALMSPAGMLRGDFSLRLFNVTPQDEQKFHCLVLSSSLGFQEVLSVEVTLHVAANFSVGSGGGGSEPKSSDKTHTCPPCPAPEAEGAPSVFLFPPKPKDTLMISRTPEVTCVVVDVSHEDPEVKFNWYVDGVEVHNAKTKPREEQYNSTYRVVSVLTVLHQDWLNGKEYKCKVSNKALPAPIEKTISKAKGQPREPQVYTLPPSREEMTKNQVSLTCLVKGFYPSDIAVEWESNGQPENNYKTTPPVLDSDGSFFLYSKLTVDKSRWQQGNVFSCSVMHEALHNHYTQKSLSLSPG What is its recorded MFI ratio to WT (ΔWT)?
Output: 1.14
